Values compiled from the supplement of paper PMC10065799.

# test.target: FGFR1 (UniProt P11362)
# Sequence (P11362 whole entry, looked up): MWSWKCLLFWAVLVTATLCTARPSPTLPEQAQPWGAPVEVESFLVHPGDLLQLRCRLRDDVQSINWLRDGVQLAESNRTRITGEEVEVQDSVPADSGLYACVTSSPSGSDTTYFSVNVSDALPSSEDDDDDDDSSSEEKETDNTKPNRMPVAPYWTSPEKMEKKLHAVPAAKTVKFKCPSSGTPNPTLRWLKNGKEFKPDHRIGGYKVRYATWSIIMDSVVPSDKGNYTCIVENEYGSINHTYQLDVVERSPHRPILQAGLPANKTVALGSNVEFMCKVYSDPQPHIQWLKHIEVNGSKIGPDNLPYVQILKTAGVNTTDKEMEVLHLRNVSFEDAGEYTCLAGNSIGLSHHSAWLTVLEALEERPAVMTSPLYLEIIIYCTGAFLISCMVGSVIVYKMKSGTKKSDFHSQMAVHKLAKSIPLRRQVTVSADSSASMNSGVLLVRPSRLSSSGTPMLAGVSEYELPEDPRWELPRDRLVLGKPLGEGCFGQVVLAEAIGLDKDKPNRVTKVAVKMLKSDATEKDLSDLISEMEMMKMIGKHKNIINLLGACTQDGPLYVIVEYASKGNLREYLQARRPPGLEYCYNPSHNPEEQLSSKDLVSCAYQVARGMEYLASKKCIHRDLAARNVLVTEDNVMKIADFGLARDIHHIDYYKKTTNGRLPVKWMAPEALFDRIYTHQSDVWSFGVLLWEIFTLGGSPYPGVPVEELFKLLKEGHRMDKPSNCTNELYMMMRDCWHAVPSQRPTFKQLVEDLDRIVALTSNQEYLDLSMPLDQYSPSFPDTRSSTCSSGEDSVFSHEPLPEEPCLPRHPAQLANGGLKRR
# protocol.description: phosphorylation enrichment, bacterial display (enrichment ratio); higher = better substrate or ligand; peptides without Tyr show the background;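 further: 11-residue human phosphosite peptides and single-mutation variants displayed on the E. coli surface, counted by deep sequencing, each peptide's frequency after selection divided by its frequency in the unselected input library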;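 further: frequency after pTyr selection over input frequency; kinase dosed for 20-30% of maximal phosphorylation in three min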
Measured phosphorylation enrichment, listed per entry for reference.

>  <ordered.residues>
RLLVVYRWTQR [HBB_Y36_P37R]

>  <phosphorylation enrichment>
0.652

$$$$
>  <ordered.residues>
HNELYYEEAEH [VANGL1_Y345]

>  <phosphorylation enrichment>
1.63

$$$$

Challenge: Bench note: what phosphorylation enrichment did EEAAGYAQESQ [CAMKV_Y491] show?
Response given: 0.545

Challenge: How about CGADSYEMEED [EGFR_Y316] ?
Response given: 0.536

Challenge: How about AIIEEYLHLND [EIF4G1_Y1253] ?
Response given: 0.564

Challenge: How about RTLIRYANLSN [BEST1_Y131_G135S] ?
Response given: 0.801
